# Tested on: NEK11
# CONDITION_PARAMETERS: concentration: 1 μM, replicates: in singlicate; n = 1;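 further: KINOMEscan kinase panel screen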
OBSERVED_PROPERTY: %Inh (%)
Answer with a number only, understood to be in %.

Cc1nn2c(=O)cc(N3CCOCC3)nc2n1Cc1cccc(Cl)c1Cl
0
CC(C)(C)c1ccc(C(=O)Nc2cn3cc(-c4ccccc4)ccc3n2)cc1
0
Nc1ncnc2c1ncn2-c1cccc(F)c1
38
COc1cccc(C2=C(Nc3cccc(C(=O)O)c3)C(=O)NC2=O)c1
36

Now take the following molecule into account.
(Q) Please give the measured %Inh for this molecule: CCS(=O)(=O)c1ccc(OC)c(Nc2ncc(-c3ccc(F)cc3)o2)c1.Cl
(A) 0

* * *

# Tested on: EPHA8
# CONDITION_PARAMETERS: concentration: 1 μM, replicates: in singlicate; n = 1
This section presents compounds with their documented %Inh values.
Answer with a number only, understood to be in %.

These solved cases illustrate the format of a correct answer.
Cl.c1ccc(Cn2cnc3cc(Nc4ncnc5ccccc45)ccc32)cc1
10
O=C(NCc1cccs1)c1cc(C(=O)c2c(Cl)cccc2Cl)c[nH]1
4
O=C(NCCNc1ccnc(Nc2ccc(F)cc2)n1)Nc1ccc2c(c1)OCO2
0
O=C(Nc1ccc2c(c1)OCO2)NC1CCN(c2ccnc(NCc3ccc(F)cc3)n2)CC1
0

Now take the following compound into account.
(Q) Please give the measured %Inh for this compound: Cl.NS(=O)(=O)c1cccc(Nc2cc(-c3ccc(F)cc3)n[nH]2)c1
(A) 21

* * *

# Tested on: LIMK1
# CONDITION_PARAMETERS: concentration: 1 μM, replicates: in singlicate; n = 1
OBSERVED_PROPERTY: %Inh
Enter the number, and then the unit.

These solved cases illustrate the format of a correct answer.
CCn1c(-c2nonc2N)nc2ccccc21
0%
CCC(=O)c1c(-c2ccccc2)c2cc(Cl)ccc2c(=O)n1Cc1cc(S(C)(=O)=O)n(CC(N)=O)n1
0%
CCC(=O)c1c(-c2ccccc2)c2cc(Cl)ccc2c(=O)n1Cc1cc(C(=O)NC2CC2)n(C)n1
0%
O=c1cc(N2CCOCC2)nc2n(Cc3ccc(F)c(Cl)c3)ccn12
7%
COc1cc(OC)cc(-c2cc3cnc(N)nc3nc2NC(=O)NC(C)(C)C)c1
0%

(Q) // map CCS(=O)c1ccc(-c2coc3ccc(-c4nnc(C)o4)cc23)cc1 (centres unmarked) to recorded %Inh (system: LIMK1)
(A) 0%

(Q) // map COc1ccc(-c2coc3ccc(-c4nnc(SCc5cccc(C#N)c5)o4)cc23)cc1 to recorded %Inh (system: LIMK1)
(A) 26%

(Q) // map Cc1c(Cn2c(C)nn3c(=O)cc(N4CCO[C@H](C)C4)nc23)cccc1C(F)(F)F to recorded %Inh (system: LIMK1)
(A) 5%

(Q) // map COc1cccc(C2=C(Nc3cccc(C(=O)O)c3)C(=O)NC2=O)c1 to recorded %Inh (system: LIMK1)
(A) 0%

(Q) // map Nc1nc(N)c2nc(-c3ccccc3)[nH]c2n1 to recorded %Inh (system: LIMK1)
(A) 0%

(Q) // map Fc1cccc(CSc2nnc(-c3ccc4c(c3)CCO4)o2)c1 to recorded %Inh (system: LIMK1)
(A) 0%

(Q) // map Cc1cccc(-c2cc(-c3c[nH]nc3-c3ccccn3)ccn2)c1 to recorded %Inh (system: LIMK1)
(A) 0%

(Q) // map CN1C(=O)C(Nc2cc(Cl)c(O)c(Cl)c2)=C(c2ccc(Cl)cc2)C1=O to recorded %Inh (system: LIMK1)
(A) 0%

* * *

This section presents compounds with their documented %Inh values.
# Tested on: QSK
# CONDITION_PARAMETERS: concentration: 1 μM, replicates: in singlicate; n = 1
Answer with a number only, understood to be in %.

These solved cases illustrate the format of a correct answer.
CCc1ccc(-c2ccc3c(c2)-c2nn(C)cc2S(=O)(=O)N3C)cc1
0
COc1cccc(-n2cnc3c(N)ncnc32)c1
28

(Q) Please give the measured %Inh for this compound: COc1cc2ncn(-c3cc(OCCCc4ccccc4)c(C(N)=O)s3)c2cc1OC
(A) 0

(Q) Please give the measured %Inh for this compound: COc1cc2nccc(Nc3ccc(OCc4ccc(NC(C)=O)cc4)cc3)c2cc1OC.Cl
(A) 15

(Q) Please give the measured %Inh for this compound: Cc1cc(Nc2nc(-c3cccc(C)n3)nc3ccccc23)ccn1
(A) 0

* * *

This section presents compounds with their documented %Inh values.
# Tested on: MYLK2
# CONDITION_PARAMETERS: concentration: 1 μM, replicates: in singlicate; n = 1
Answer with a number only, understood to be in %.

(Q) Please give the measured %Inh for this compound: COC(=O)c1c(-c2ccccc2)c2cc(Br)ccc2c(=O)n1Cc1ccc(NC(=O)CCC(=O)O)cc1
(A) 0

(Q) Please give the measured %Inh for this compound: Cc1nnc(-c2ccc(C)c(-c3ccc(C(=O)O)cc3)c2)o1 [GW608005]
(A) 2

* * *

# System: PIM2
# CONDITION_PARAMETERS: concentration: 1 μM, replicates: in singlicate; n = 1
OBSERVED_PROPERTY: %Inh (%)
Answer with a number only, understood to be in %.

Nc1ncnc2c1ncn2-c1cccc2ccccc12
32
O=C(Nc1n[nH]c2cc(-c3ccccc3F)ccc12)C1CC1
0
COc1cc2ncn(-c3cc(OCc4ccncc4Br)c(C(N)=O)s3)c2cc1OC
0
Nc1nc(-c2ccccc2F)c(-c2ccnc3ccccc23)s1
0
COc1ccc(-c2coc3ccc(-c4nnc(SCc5cccc(C#N)c5)o4)cc23)cc1
20

(Q) // map FC(F)(F)c1ccc(-c2ncn(CCCN3CCOCC3)c2-c2ccncc2)cc1 to recorded %Inh (system: PIM2)
(A) 0

* * *

# System: RIPK5
# CONDITION_PARAMETERS: concentration: 1 μM, replicates: in singlicate; n = 1
OBSERVED_PROPERTY: %Inh (%)
Answer with a number only, understood to be in %.

(Q) // map COc1cc2ncn(-c3cc(OCc4ccc(S(C)(=O)=O)cc4)c(C(N)=O)s3)c2cc1OC [GW869979] to recorded %Inh (system: RIPK5)
(A) 3

* * *

This section presents compounds with their documented %Inh values.
# Tested on: CDK3
# CONDITION_PARAMETERS: concentration: 1 μM, replicates: in singlicate; n = 1
Answer with a number only, understood to be in %.

These solved cases illustrate the format of a correct answer.
Cc1nc(N(C)[C@H]2CN(C(=O)CC#N)CC[C@H]2C)c2cc[nH]c2n1
2
Cc1nn2c(=O)cc(N3CCOCC3)nc2n1Cc1cccc(Cl)c1Cl
16
Cc1ccccc1COc1cc(-n2cnc3cc(Cl)ccc32)sc1C(N)=O
0

(Q) Please give the measured %Inh for this compound: CCS(=O)c1ccc(-c2coc3ccc(-c4nnc(C)o4)cc23)cc1 (stereo not shown)
(A) 0

(Q) Please give the measured %Inh for this compound: CCS(=O)(=O)c1ccc(OC)c(Nc2ncc(-c3ccc(F)cc3)o2)c1.Cl
(A) 0

(Q) Please give the measured %Inh for this compound: Cc1cc(Nc2nc(-c3cccc(C)n3)nc3ccccc23)ccn1
(A) 0

(Q) Please give the measured %Inh for this compound: Cc1ccc(Oc2ccc(Nc3ncnc4cc[nH]c34)cc2C)cn1
(A) 0

(Q) Please give the measured %Inh for this compound: C[C@@H]1CC[C@H](C(=O)NC2CCCCC2)CN1c1cc(-c2ccc3c(N)n[nH]c3c2)nc(N)n1
(A) 18

(Q) Please give the measured %Inh for this compound: CN1C(=O)C(Nc2cc(Cl)c(O)c(Cl)c2)=C(c2ccc(Cl)cc2)C1=O
(A) 0

(Q) Please give the measured %Inh for this compound: COc1cc2ncn(-c3cc(OCc4ccncc4)c(C(N)=O)s3)c2cc1OC
(A) 10

(Q) Please give the measured %Inh for this compound: COc1ccc(CNC(=O)NC2CCN(c3ccnc(Nc4ccc(F)cc4)n3)C2)cc1 (stereo not shown)
(A) 20

(Q) Please give the measured %Inh for this compound: CCn1c(-c2nonc2N)nc2ccccc21
(A) 48

(Q) Please give the measured %Inh for this compound: O=C1NC(=O)C(c2ccccc2)=C1Nc1cccc(O)c1
(A) 6

(Q) Please give the measured %Inh for this compound: Nc1n[nH]c2nnc(-c3ccccc3)c(-c3ccccc3)c12
(A) 17

(Q) Please give the measured %Inh for this compound: CCC(=O)c1c(-c2ccccc2)c2cc(Cl)ccc2c(=O)n1Cc1cc(S(C)(=O)=O)n(CC(N)=O)n1
(A) 0

* * *

# Tested on: LTK
# CONDITION_PARAMETERS: concentration: 1 μM, replicates: in singlicate; n = 1
This section presents compounds with their documented %Inh values.
Answer with a number only, understood to be in %.

Cc1ccc(Oc2ccc(Nc3ncnc4cc[nH]c34)cc2C)cn1
0
Nc1ncnc2c1ncn2-c1cccc(F)c1
0
COC(=O)c1c(-c2ccccc2)c2cc(C)ccc2c(=O)n1Cc1ccccc1
0
O=c1cc(N2CCOCC2)nc2n(Cc3ccc(F)c(Cl)c3)ccn12
0
CCC(=O)c1c(-c2ccccc2)c2cc(Cl)ccc2c(=O)n1Cc1cc(C(=O)NC2CC2)n(C)n1
16
CCS(=O)c1ccc(-c2coc3ccc(-c4nnc(C)o4)cc23)cc1 (centres unmarked)
0
Cc1c(Cn2c(C)nn3c(=O)cc(N4CCO[C@H](C)C4)nc23)cccc1C(F)(F)F
0
Cc1nnc(-c2ccc(C)c(-c3ccc(C(=O)O)cc3)c2)o1
0
COc1cc(Nc2nccc(N3CCC(NC(=O)C(C)c4ccc(Cl)cc4)C3)n2)cc(OC)c1OC (centres unmarked)
28
CCn1c(-c2ccoc2)nc2cnccc21
1

(Q) // map Nc1n[nH]c2nnc(-c3ccccc3)c(-c3ccccc3)c12 to recorded %Inh (system: LTK)
(A) 0

(Q) // map Cc1nnc(-c2ccc3ncn(-c4ccc(S(C)=O)cc4)c3c2)o1 (centres unmarked) to recorded %Inh (system: LTK)
(A) 0

(Q) // map CCC(=O)c1c(-c2ccccc2)c2cc(Cl)ccc2c(=O)n1Cc1cc(S(C)(=O)=O)n(CCC(C)(C)O)n1 to recorded %Inh (system: LTK)
(A) 6

(Q) // map CCC(=O)c1c(-c2ccccc2)c2cc(Cl)ccc2c(=O)n1Cc1cc(S(C)(=O)=O)n(CC(F)F)n1 to recorded %Inh (system: LTK)
(A) 0

(Q) // map CC(C)(C)c1ccc(C(=O)Nc2cn3cc(-c4ccccc4)ccc3n2)cc1 to recorded %Inh (system: LTK)
(A) 0

(Q) // map CCn1c(-c2nonc2N)nc2ccccc21 to recorded %Inh (system: LTK)
(A) 4

(Q) // map COc1ccc(-c2cc3c(C)nc(N)nc3n([C@H]3CC[C@H](OCCO)CC3)c2=O)cn1 to recorded %Inh (system: LTK)
(A) 9

(Q) // map COc1ccc(-c2cc3c(C)nc(N)nc3n([C@H]3CC[C@H](O)CC3)c2=O)cn1 to recorded %Inh (system: LTK)
(A) 0

(Q) // map Nc1ncnc2c1ncn2-c1cccc2ccccc12 to recorded %Inh (system: LTK)
(A) 0

(Q) // map CCS(=O)(=O)c1ccc(OC)c(Nc2ncc(-c3ccc(F)cc3)o2)c1.Cl to recorded %Inh (system: LTK)
(A) 0

(Q) // map CCc1nc(-c2cccc(C)c2)c(-c2ccncc2)s1 to recorded %Inh (system: LTK)
(A) 0
